pKi overview
# assayed.target: VMAT2 (Rattus norvegicus, UniProt Q01827)
# Construct: from tissue; host or cells: rat striatum, isolated synaptic vesicles
# Sequence (Q01827 whole entry): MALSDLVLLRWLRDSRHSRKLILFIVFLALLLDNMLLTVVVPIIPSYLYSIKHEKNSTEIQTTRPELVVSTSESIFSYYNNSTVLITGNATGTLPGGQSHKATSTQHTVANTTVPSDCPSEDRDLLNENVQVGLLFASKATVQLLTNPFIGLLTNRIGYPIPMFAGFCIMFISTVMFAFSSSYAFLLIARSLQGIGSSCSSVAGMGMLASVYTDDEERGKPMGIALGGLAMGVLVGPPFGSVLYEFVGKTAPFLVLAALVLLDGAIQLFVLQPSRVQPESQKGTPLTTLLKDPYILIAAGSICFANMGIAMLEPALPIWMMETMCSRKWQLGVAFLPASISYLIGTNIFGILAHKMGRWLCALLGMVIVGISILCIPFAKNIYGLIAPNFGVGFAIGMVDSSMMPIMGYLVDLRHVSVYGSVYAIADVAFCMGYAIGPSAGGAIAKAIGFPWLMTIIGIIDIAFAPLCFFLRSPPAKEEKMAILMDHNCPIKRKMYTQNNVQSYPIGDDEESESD
# protocol.text: [3H]Dopamine ([3H]DA) uptake assay, vesicular preparation
# Format: biochemical
FYI, pKi means -log10 of a concentration in mol per litre.

Consider the reported pKi for these molecules:
What value of pKi has been recorded for this entry: CC(Cc1ccc(F)c(F)c1)NCCCc1ccc(NC(N)=O)cc1 (centres unmarked) 7.44

Subsequent entry: CC(Cc1ccc(F)c(F)c1)NCCCc1ccccc1-c1ccnn1C (centres unmarked) 6.87

Subsequent entry: CC(Cc1ccc(F)c(F)c1)NCCCc1ccc2ncsc2c1 (centres unmarked) 7.17

More entries:
What value of pKi has been recorded for this entry: CC(Cc1ccc(NC(N)=O)cc1)NCCCc1ccc(F)cc1 (centres unmarked) 7.47

Subsequent entry: CC(Cc1ccc(F)cc1)NC(=O)CCc1ccc([N+](=O)[O-])cc1 (centres unmarked) 4.97
